EXPERIMENTAL_SYSTEM: FXR (NR1H4) (Homo sapiens, UniProt Q96RI1)
Sequence (Q96RI1 1-486): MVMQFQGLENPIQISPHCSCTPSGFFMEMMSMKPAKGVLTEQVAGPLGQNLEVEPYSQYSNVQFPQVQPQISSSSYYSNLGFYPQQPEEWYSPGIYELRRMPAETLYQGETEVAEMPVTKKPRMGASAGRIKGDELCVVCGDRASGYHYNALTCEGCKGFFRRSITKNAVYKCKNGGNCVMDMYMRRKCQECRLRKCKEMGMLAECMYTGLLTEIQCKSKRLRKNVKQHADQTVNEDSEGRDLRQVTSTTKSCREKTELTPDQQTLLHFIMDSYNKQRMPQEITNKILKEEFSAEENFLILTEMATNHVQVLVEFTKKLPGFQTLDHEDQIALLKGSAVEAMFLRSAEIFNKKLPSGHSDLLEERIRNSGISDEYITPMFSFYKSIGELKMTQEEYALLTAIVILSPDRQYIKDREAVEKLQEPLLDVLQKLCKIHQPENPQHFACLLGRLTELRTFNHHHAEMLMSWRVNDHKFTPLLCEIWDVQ
ASSAY_PROTOCOL: ATG_FXR_TRANS: Factorial reporter gene assay (HepG2)
Assay type: cell-based
Parameters: expressed in transfected cells; host or cells: HepG2; scale not given here
PROTOCOL_CONDITIONS: scale not given, looks like -log10 of molar active concentration, 0 = no activity
Excerpt: A multiple reporter transcription unit (MRTU) library consisting of 48 transcription factor binding sites was transfected into the HepG2 human liver hepatoma cell line. In addition to the cis-acting reporter genes (CIS), a modification of the approach was used to generate a trans-system (TRANS) with a mammalian one-hybrid assay consisting of an additional 25 MRTU library reporting the activity of nuclear receptor super-family members. […]
READOUT_LABEL: ATG_FXR_TRANS
Lab note: jot down the number only; don't add units.

Identify measured ATG_FXR_TRANS associated with CC1=C(C(=O)Nc2ccccc2)SCCO1 [r53] 0

---
Hello, please tell me recorded ATG_FXR_TRANS for this one: CNC(=O)Oc1cccc2ccccc12 [r52] 0

Report ATG_FXR_TRANS for N#Cc1c(Cl)c(Cl)c(Cl)c(C#N)c1Cl [r58] 0

Report ATG_FXR_TRANS, nothing else, for this molecule: CCOC(=O)C(Cl)Cc1cc(-n2nc(C)n(C(F)F)c2=O)c(F)cc1Cl (stereo not drawn) [r54] 0

Specify measured ATG_FXR_TRANS for CCCCOCN(C(=O)CCl)c1c(CC)cccc1CC [r46] . 0

// fetch ATG_FXR_TRANS given entry COC(=O)c1ccccc1CS(=O)(=O)NC(=O)Nc1nc(OC)cc(OC)n1 [r33] 0

Look up and report measured ATG_FXR_TRANS for this entry: Cc1c(COC(=O)C2C(/C=C(\Cl)C(F)(F)F)C2(C)C)cccc1-c1ccccc1 (stereo not drawn) [r39] 0

Please indicate ATG_FXR_TRANS recorded for N#Cc1cc(Br)c(O)c(Br)c1 [r44] 0

Tell me measured ATG_FXR_TRANS for CCC(C)n1c(=O)[nH]c(C)c(Br)c1=O (stereo not drawn) [r43] please. 0

Identify ATG_FXR_TRANS associated with the molecule COc1ccc(-c2ccccc2)cc1NNC(=O)OC(C)C [r38] 0

Output ATG_FXR_TRANS of CC(C)OC(=O)Nc1cccc(Cl)c1 [r59] 0

// fetch ATG_FXR_TRANS given entry OB(O)O [r41] 0
